Overview of reported pIC50 across a group of sequences:
- target-entity: A*3301 (Homo sapiens, UniProt P04439, A270S/D185E/E176V/E277Q/E87N/F33T/G231S/H175R/I121M/I218V/I322F/K168Q/K210R/L300P/L318F/M331R/P217A/Q86R/Q94H/R138Q/T323A/T345S/T97I/V358M/Y195H)
- protocol-text: biochemical
- Assay type: binding
No end group written: not given here.
Lab note — pIC50 values are minus log10 of concentrations in M.

ordered_residues="HLFTYSWYK [Peptide 76.0164]" property_label=pIC50 reported_result=6.86
ordered_residues="AFKDLFVVYK [Peptide 88.0024]" property_label=pIC50 reported_result=7.03

**Query** Give the measured pIC50 of TVRHKKLMFK [Peptide 1556.79] .
**Result** 4.93
